# Tested on: SW626
# protocol_details: Antiproliferative activity against human SW626 cells assessed as reduction in cell viability incubated for 24 hrs by CCK8 assay
# Format: functional, cell-based
# condition: SW626, 24 h
# maps each entry to its IC50
readout_type: IC50 (µM)

>>> numeric_value("Cc1cc(-c2nc3sc4c(c3c(=O)[nH]2)CCN(C)C4)cc(C)c1OCCCCCC(=O)OCc1no[n+]([O-])c1C")
5.79
>>> numeric_value("Cc1cc(-c2nc3sc4c(c3c(=O)[nH]2)CCN(C)C4)cc(C)c1OCCCC(=O)OCc1c(-c2ccccc2)no[n+]1[O-]")
7.65
>>> numeric_value("Cc1cc(-c2nc3sc4c(c3c(=O)[nH]2)CCN(C)C4)cc(C)c1OCCCCCCO[N+](=O)[O-]")
17

Data origin: ChEMBL document CHEMBL5325395
